Source listed as patent US20250215010A1.

# Study target: ADAM17 (TACE) (Homo sapiens, UniProt P78536)
# Sequence (P78536 215-477 limits assumed): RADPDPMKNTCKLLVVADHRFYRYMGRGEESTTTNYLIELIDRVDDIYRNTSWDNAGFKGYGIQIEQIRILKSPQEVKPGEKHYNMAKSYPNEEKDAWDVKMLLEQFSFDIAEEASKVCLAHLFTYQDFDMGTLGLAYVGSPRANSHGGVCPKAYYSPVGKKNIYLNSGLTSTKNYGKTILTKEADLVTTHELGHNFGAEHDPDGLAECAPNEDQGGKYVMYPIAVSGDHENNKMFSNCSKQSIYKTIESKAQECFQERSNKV
# Assay method text: TACE fluorometric inhibition assay (Enzo kit BML-AK310)
# Format: biochemical
# Measurement parameters: quenched fluorogenic peptide, ex/em 320/420 nm; read-out: TACE IC50 class
Outcome measure: IC50

>>> print(df.to_string())
                                smiles_repr                              study_target  outcome_measure      result
0  CC(=O)N1[C@@H]2CC[C@H]1[C@H](C(=O)NO)N(S(=O)(=O)N1CCC(Oc3ccnc(C(F)(F)F)c3)CC1)C2  ADAM17 (TACE) (Homo sapiens, UniProt P78536)             IC50  1 to 10 µM
1  COCCOC(=O)N1[C@@H]2CC[C@H]1[C@H](C(=O)NO)N(S(=O)(=O)c1cnc(Oc3ccc(F)cc3)c(F)c1)C2  ADAM17 (TACE) (Homo sapiens, UniProt P78536)             IC50  1 to 10 µM
2  COCCOC(=O)N1[C@@H]2CC[C@H]1[C@H](C(=O)NO)N(S(=O)(=O)c1ccc(Oc3ccc(C(C)(C)O)cc3)nc1)C2  ADAM17 (TACE) (Homo sapiens, UniProt P78536)             IC50  1 to 10 µM

So for `COCCOC(=O)N1[C@@H]2CC[C@H]1[C@H](C(=O)NO)N(S(=O)(=O)c1ccc(Oc3nc4ccc(Cl)cc4o3)c(F)c1)C2` , the logged IC50 turned out to be 1 to 10 µM

So for `CC(=O)N1[C@@H]2CC[C@H]1[C@H](C(=O)NO)N(S(=O)(=O)c1ccc(Oc3ccc(OCC(F)(F)F)cc3)nc1)C2` , the logged IC50 turned out to be > 10 µM

So for `COC(=O)N1[C@@H]2CC[C@H]1[C@H](C(=O)NO)N(S(=O)(=O)c1ccc(Oc3ccc(F)cc3)nc1)C2` , the logged IC50 turned out to be 1 to 10 µM

---

# Study target: MMP1 (Homo sapiens)
# Sequence (P03956 100-269 limits assumed): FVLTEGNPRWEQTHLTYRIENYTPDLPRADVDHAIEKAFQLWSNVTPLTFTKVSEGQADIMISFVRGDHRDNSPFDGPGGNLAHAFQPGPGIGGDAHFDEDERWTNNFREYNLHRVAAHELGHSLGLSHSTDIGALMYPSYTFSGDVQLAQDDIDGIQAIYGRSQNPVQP
# Assay method text: MMP-1 colorimetric inhibition assay (Enzo kit BML-AK404)
# Assay type: biochemical
# Measurement parameters: thiopeptide substrate, absorbance 415 nm; read-out: MMP 1 IC50 class
# Method: The inhibitory activities of the compounds of the invention were assessed in 96-well microplate format using MMP1, MMP2, MMP9 and MMP13 colorimetric assay kits and TACE fluorometric assay kit from Enzo Life Sciences, Inc. The inhibitory effect of the compounds of the invention on ADAM10 activity were evaluated in 96-well microplate format using fluorometric assay from AnaSpec, Inc. […]
pIC50: −log10 of the molar value.
We begin with a simple list: items and their reported pIC50.

>>> print(df.to_string())
                                   compound  outcome_measure  result
0  COCCOC(=O)N1[C@@H]2CC[C@H]1[C@H](C(=O)NO)N(S(=O)(=O)c1ccc(Oc3nc4ccc(Cl)cc4o3)c(F)c1)C2 [Example 80]            pIC50  < 5.00

Item CN(C)C(=O)CN1[C@@H]2CC[C@H]1[C@H](C(=O)NO)N(S(=O)(=O)c1ccc(Oc3ccc(F)cc3)nc1)C2 [Example 51] was tested on MMP1 (Homo sapiens); the reported pIC50 is 5.00 to 6.00

Item COc1ccc(Oc2ccc(S(=O)(=O)N3C[C@H]4CC[C@@H]([C@@H]3C(=O)NO)N4C(C)=O)cn2)cc1F [Example 63] was tested on MMP1 (Homo sapiens); the reported pIC50 is 5.00 to 6.00

Item COCCOC(=O)N1[C@@H]2CC[C@H]1[C@H](C(=O)NO)N(S(=O)(=O)c1ccc(Oc3nc4ccc(F)cc4o3)c(F)c1)C2 [Example 82] was tested on MMP1 (Homo sapiens); the reported pIC50 is < 5.00

---

# Study target: ADAM17 (TACE) (Homo sapiens, UniProt P78536)
# Assay method text: TACE fluorometric inhibition assay (Enzo kit BML-AK310)
# Assay type: biochemical
# Measurement parameters: quenched fluorogenic peptide, ex/em 320/420 nm; read-out: TACE IC50 class
Outcome measure: IC50

A selection of reference data follows.
                                smiles_repr  outcome_measure      result
0  CC(C)C(=O)N1[C@@H]2CC[C@H]1[C@H](C(=O)NO)N(S(=O)(=O)c1ccc(Oc3ccc(OC(F)(F)F)cc3)nc1)C2             IC50  1 to 10 µM
1  CCOc1ccc(Oc2ccc(S(=O)(=O)N3C[C@H]4CC[C@@H]([C@@H]3C(=O)NO)N4C(=O)OCCOC)cn2)cc1             IC50  1 to 10 µM
2  COCCOC(=O)N1[C@@H]2CC[C@H]1[C@H](C(=O)NO)N(S(=O)(=O)c1ccc(OC3CCC(C)(C)CC3)nc1)C2             IC50  1 to 10 µM
3  COCCOC(=O)N1[C@@H]2CC[C@H]1[C@H](C(=O)NO)N(S(=O)(=O)c1ccc(Oc3nc4ccccc4o3)c(F)c1)C2             IC50  1 to 10 µM

So for `COCCOC(=O)N1[C@@H]2CC[C@H]1[C@H](C(=O)NO)N(S(=O)(=O)c1ccc(Oc3ccc(Cl)cc3F)nc1)C2` , the logged IC50 turned out to be 0.05 to 1 µM

---

We begin with a simple list: items and their reported IC50.
# Study target: ADAM17 (TACE) (Homo sapiens)
# Assay method text: TACE fluorometric inhibition assay (Enzo kit BML-AK310)
# Assay type: biochemical
# Measurement parameters: quenched fluorogenic peptide, ex/em 320/420 nm; read-out: TACE IC50 class

>>> df
                                   molecule                  study_target      result
0  COCCOC(=O)N1[C@@H]2CC[C@H]1[C@H](C(=O)NO)N(S(=O)(=O)c1cnc(Oc3ccc(F)cc3)cn1)C2 [Example 17]  ADAM17 (TACE) (Homo sapiens)     > 10 µM
1  COCCOC(=O)N1[C@@H]2CC[C@H]1[C@H](C(=O)NO)N(S(=O)(=O)N1CCN(C(=O)c3ccc(Cl)cc3)CC1)C2 [Example 78]  ADAM17 (TACE) (Homo sapiens)  1 to 10 µM

Item COCCOC(=O)N1[C@@H]2CC[C@H]1[C@H](C(=O)NO)N(S(=O)(=O)c1ccc(Oc3ccc(OC(C)(C)C)cc3)nc1)C2 [Example 31] was tested on ADAM17 (TACE) (Homo sapiens); the reported IC50 is > 10 µM

Item COc1ccc(Oc2ccc(S(=O)(=O)N3C[C@H]4CC[C@@H]([C@@H]3C(=O)NO)N4C(=O)N3CCOCC3)cn2)cc1F [Example 73] was tested on ADAM17 (TACE) (Homo sapiens); the reported IC50 is 1 to 10 µM

Item CC(C)OC(=O)N1[C@@H]2CC[C@H]1[C@H](C(=O)NO)N(S(=O)(=O)c1ccc(Oc3ccc(F)cc3)nc1)C2 [Example 67] was tested on ADAM17 (TACE) (Homo sapiens); the reported IC50 is 1 to 10 µM

Item COCCOC(=O)N1[C@@H]2CC[C@H]1[C@H](C(=O)NO)N(S(=O)(=O)N1CCC(Oc3ccnc(C(F)(F)F)c3)CC1)C2 [Example 49] was tested on ADAM17 (TACE) (Homo sapiens); the reported IC50 is 1 to 10 µM
